This collection of values is drawn from the supplement of paper PMC10567573.

B1: PKD2L1 (parent)
chain: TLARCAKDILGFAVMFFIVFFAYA

variants of: B1; experiment: protein stability index of a GFP-peptide fusion (GPS, HEK-293T) (PSI 1-6); higher = more stable; conditions: c terminus: a fixed tail appended;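 also: lentivirally expressed fusions sorted by FACS into six bins by GFP to DsRed ratio, PSI derived from sequencing read proportions per bin multiplied by bin number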
Attribute measured: protein stability index
One number for each entry.

Need protein stability index for each of these variants.
1. L2R
2. F21R
3. V14R
4. V14P
5. F16R
6. L2M
7. V19L

3.68
2.16
2.82
1.82
3.37
3.8
3.88

Provide protein stability index for all items below, preserving their order.
1. F17T
2. V19K
3. T1H

1: 2.4; 2: 2.34; 3: 2.29

Look up protein stability index for the entries below, preserving their order.
1. L10F
2. C5N

1: 1.91; 2: 1.9
